assayed system: T1, human CD4 on cells (SKW3 cells; human PBMCs) (human, UniProt P01730 26-458)
T1 construct: whole, on cells; SKW3 CD4 knockout cells served as the negative cell line; also called hCD4
assay overview: FACS confirmation, supernatant on human PBMCs, anti-mouse Fc 647, CD4+ percent of viable cells
Threshold 30%. PBMCs, anti-mFc 647 CD4+ Percent Bound of Viable below it: MET. PBMCs, anti-mFc 647 CD4+ Percent Bound of Viable at it or above: NOT MET.

binder | answer label
75110_13C13A (antibody, IgG1, V domains shown, Tested as non-clonal AlivaMab Mouse Kappa hybridoma supernatant: human variable domains and human kappa, mouse Fc) VH: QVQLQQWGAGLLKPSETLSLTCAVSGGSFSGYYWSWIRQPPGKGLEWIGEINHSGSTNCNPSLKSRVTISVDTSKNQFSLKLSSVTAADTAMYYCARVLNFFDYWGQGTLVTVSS VL: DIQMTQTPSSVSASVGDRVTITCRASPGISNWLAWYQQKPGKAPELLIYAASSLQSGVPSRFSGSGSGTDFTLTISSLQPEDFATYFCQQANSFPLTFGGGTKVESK | MET
75110_04G16A (antibody, V domains shown, Tested as non-clonal AlivaMab Mouse Kappa hybridoma supernatant: human variable domains and human kappa, mouse Fc) VH: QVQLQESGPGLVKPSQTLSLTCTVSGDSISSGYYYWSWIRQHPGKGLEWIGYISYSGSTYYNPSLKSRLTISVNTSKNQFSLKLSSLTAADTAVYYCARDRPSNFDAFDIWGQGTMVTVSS VL: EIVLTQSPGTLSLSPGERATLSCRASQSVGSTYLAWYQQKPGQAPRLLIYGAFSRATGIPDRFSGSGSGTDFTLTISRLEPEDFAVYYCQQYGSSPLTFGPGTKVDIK | NOT MET
75110_02I16A (antibody, IgG1, V domains shown, Tested as non-clonal AlivaMab Mouse Kappa hybridoma supernatant: human variable domains and human kappa, mouse Fc; also called 75110_02116A) VH: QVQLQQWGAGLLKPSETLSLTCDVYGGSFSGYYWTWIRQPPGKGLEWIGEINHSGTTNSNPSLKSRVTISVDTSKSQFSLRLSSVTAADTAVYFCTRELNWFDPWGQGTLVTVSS VL: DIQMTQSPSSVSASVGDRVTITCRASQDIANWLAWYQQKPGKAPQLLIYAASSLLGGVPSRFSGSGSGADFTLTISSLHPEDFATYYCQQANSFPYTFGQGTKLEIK | MET
75110_14P05A (antibody, V domains shown, Tested as non-clonal AlivaMab Mouse Kappa hybridoma supernatant: human variable domains and human kappa, mouse Fc) VH: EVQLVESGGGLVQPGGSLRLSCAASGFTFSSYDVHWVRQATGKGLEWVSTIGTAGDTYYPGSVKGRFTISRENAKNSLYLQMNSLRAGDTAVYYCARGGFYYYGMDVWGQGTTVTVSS VL: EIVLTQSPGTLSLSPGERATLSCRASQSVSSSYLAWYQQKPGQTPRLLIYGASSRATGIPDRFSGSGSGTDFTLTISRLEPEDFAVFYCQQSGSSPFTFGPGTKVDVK | MET
